Biological target: Hexokinase-4 (Rattus norvegicus)
Experiment: Activation of glucokinase in rat INS1(832/13) cells assessed as increase in glucose sensitive insulin secretion at 20 uM after 2 hrs in presence of 5.5 mM glucose by AlphaLISA method relative to control
Format: cell-based
Calls of active or inactive are those of the source. No cut-off for these calls is given here.
Assay Readout: fold change (FC)

Consider the worked cases shown below.
• COC[C@H](C)Oc1cc(Oc2ccc(C(=O)N3CCC3)cc2)cc(C(=O)Nc2nc3c(s2)CN(C(=O)OC(C)(C)C)CC3)c1 = 2.69
• CCS(=O)(=O)c1ccc(Oc2cc(OC(C)COC)cc(C(=O)Nc3nc4c(s3)CN(C(=O)OC(C)(C)C)CC4)c2)cc1 (stereo not drawn) = inactive
• COCCN1CCc2nc(NC(=O)c3cc(Oc4ccc(C(=O)N5CCC5)cc4)cc(O[C@@H](C)COC)c3)sc2C1 = 6.07
• CC(C)(C)OC(=O)N1CCc2nc(NC(=O)c3cc(OCc4ccccc4)cc(Oc4ccc(S(C)(=O)=O)cc4)c3)sc2C1 = inactive
• COCC(C)Oc1cc(Oc2ccc(S(C)(=O)=O)nc2)cc(C(=O)Nc2nc3c(s2)CN(C(=O)OC(C)(C)C)CC3)c1 (stereo not drawn) = 1.42
• CC(C)Oc1cc(Oc2ccc(S(C)(=O)=O)cc2)cc(C(=O)Nc2nc3c(s2)CN(C(=O)OC(C)(C)C)CC3)c1 = inactive

IN: What value of fold change (FC) on Hexokinase-4 (Rattus norvegicus) does `COC[C@H](C)Oc1cc(Oc2ccc(C(=O)N3CCC3)cc2)cc(C(=O)Nc2nc3c(s2)CN(c2ccccn2)CC3)c1` have?
OUT: 2.47

IN: What reported fold change (FC) corresponds to `CCOC(=O)N1CCc2nc(NC(=O)c3cc(Oc4ccc(C(=O)N5CCC5)cc4)cc(O[C@@H](C)COC)c3)sc2C1` on Hexokinase-4 (Rattus norvegicus)?
OUT: 5.45
